Study System: E. coli LpxA (Escherichia coli, UniProt P0A722)
Sequence (P0A722 whole entry): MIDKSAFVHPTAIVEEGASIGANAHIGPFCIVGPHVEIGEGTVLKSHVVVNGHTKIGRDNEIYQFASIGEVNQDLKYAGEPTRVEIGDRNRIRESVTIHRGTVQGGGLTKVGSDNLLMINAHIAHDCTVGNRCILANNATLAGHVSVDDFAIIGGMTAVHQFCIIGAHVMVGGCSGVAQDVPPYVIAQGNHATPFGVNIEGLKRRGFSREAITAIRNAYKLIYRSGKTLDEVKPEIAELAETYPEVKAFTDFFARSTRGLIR
Assay Text: LpxA acyltransferase inhibition assay ([α-32P]UDP-GlcNAc conversion, TLC)
Type: biochemical
Design: made in house; host or cells: E. coli BL21(DE3)/pLysE/pTO1
Test Context: 1 µM UDP-GlcNAc, 1 µM R-3-hydroxymyristoyl-ACP, 1 nM LpxA, 30 °C, 10% DMSO; SD of triplicates
Where no end group is shown, it is not given here.
Reported Endpoint: pIC50
Hey, just a heads up that pIC50 is the negative log base 10 of the concentration in molar.

• GWMLDPIAGKWSR [CR19] = 7.11
• SSGWMLDPIAGKW [CR22] = 5.05
• GWMLDPIAGKW [CR23] = 5.00

Entry SSGWMLDPIAGKWS [CR21] ; pIC50 = 4.92
